- Tested on: PARG in HeLa cell line
- test_name: PARG cell assay (PAR chain immunofluorescence after MMS)
- Type: cell-based
- reported_conditions: Homo sapiens; HeLa cells, MMS 50 μg/mL; read-out: PARG Cell IC50 Geomean
List of pIC50 values.
pIC50 field: float, defined as -log10 of concentration (mol/L).

Use the examples below as a reference point.
{"compound": "Cn1c(=O)c2cc(S(=O)(=O)NC3(C)CC3)ccc2n(CC2CC2)c1=O [Example 23]", "observed_property": "pIC50", "value_reported": 6.28}
{"compound": "COc1cccc(Cn2c(=O)n(Cc3cc(C)no3)c(=O)c3cc(S(=O)(=O)NC4(C)CC4)ccc32)c1 [Example 200]", "observed_property": "pIC50", "value_reported": 6.65}

Param item = Cc1cc(Cn2c(=O)c3cc(S(=O)(=O)NC4(C)CC4)ccc3n(CC3CCO3)c2=O)on1 (stereo not shown) [Example 349] ; retrieve measured pIC50.
6.20

Param item = Cn1cc(Cn2c(=O)c3cc(S(=O)(=O)NC4(C#N)CC4)ccc3n(CC3CC3)c2=O)cn1 [Example 346] ; retrieve measured pIC50.
6.41

###

List of IC50 values.
- target_or_test_system: Human Full Length PARG (Homo sapiens (Human))
- test_name: PARG enzyme assay (TR-FRET)
- Format: biochemical
- reported_conditions: read-out: PARG Biochem IC50 Geomean
Your answer should be a number followed by the unit of measure.

Use the examples below as a reference point.
{"mol_smiles": "Cc1cc(Cn2c(=O)n(C)c(=O)c3cc(S(=O)(=O)NC4(C)CC4)ccc32)n(C)n1", "value_reported": "384 nM"}
{"mol_smiles": "Cc1cc(Cn2c(=O)c3cc(S(=O)(=O)NC4(C)CC4)ccc3n(CCCN3CCN(C)CC3)c2=O)on1", "value_reported": "307 nM"}
{"mol_smiles": "Cn1c(=O)c(=O)n(CC2CC2)c2ccc(S(=O)(=O)NC3(C)CC3)cc21", "value_reported": "1020 nM"}

Turning now to a further molecule:
Can you look up IC50 on Human Full Length PARG (Homo sapiens (Human)) for `Cc1cc(Cn2c(=O)c3cc(S(=O)(=O)NC4(C)CC4)ccc3n(C3COC3)c2=O)on1` ?
479 nM

###

- target_or_test_system: Human Full Length PARG (Homo sapiens (Human))
- test_name: PARG enzyme assay (TR-FRET)
- Format: biochemical
- reported_conditions: read-out: PARG Biochem IC50
observed_property: pIC50
pIC50 field: float, defined as -log10 of concentration (mol/L).

Use the examples below as a reference point.
{"mol_smiles": "Cc1oncc1Cn1c(=O)c2cc(S(=O)(=O)NC3(C)CC3)ccc2n(C)c1=O", "pIC50": 6.11}
{"mol_smiles": "CN(C)C(=O)Cn1c(=O)c2cc(S(=O)(=O)NC3(C)CC3)ccc2n(C)c1=O", "pIC50": 5.43}
{"mol_smiles": "Cn1cc(Cn2c(=O)c3cc(S(=O)(=O)NC4(CF)CC4)ccc3n(Cc3cnn(C)n3)c2=O)cn1", "pIC50": 7.07}

Can you look up pIC50 on Human Full Length PARG (Homo sapiens (Human)) for `CCc1nnc(Cn2c(=O)c3cc(S(=O)(=O)NC4(CF)CC4)ccc3n(C)c2=O)s1` ?
5.57

Can you look up pIC50 on Human Full Length PARG (Homo sapiens (Human)) for `Cn1cc(Cn2c(=O)c3cc(S(=O)(=O)NC4(CF)CC4)ccc3n(CCF)c2=O)cn1` ?
6.82

###

- target_or_test_system: UniProt Q86W56
- test_name: PARG enzyme assay (TR-FRET)
- Assay type: biochemical
- reported_conditions: read-out: PARG Biochem IC50 Geomean
observed_property: pIC50
pIC50 field: float, defined as -log10 of concentration (mol/L).

Use the examples below as a reference point.
{"compound": "Cc1noc(C)c1Cn1c(=O)c2cc(S(=O)(=O)NC3(C)CC3)ccc2n(Cc2ccc(F)cc2)c1=O [Example 168]", "observed_property": "pIC50", "value_reported": 6.80}
{"compound": "COCCn1c(=O)n(Cc2cc(C)no2)c(=O)c2cc(S(=O)(=O)NC3(C)CC3)ccc21 [Example 274]", "observed_property": "pIC50", "value_reported": 6.63}
{"compound": "Cn1c(=O)n(Cc2cnc(Cl)s2)c(=O)c2cc(S(=O)(=O)NC3(C)CC3)ccc21 [Example 144]", "observed_property": "pIC50", "value_reported": 5.80}

Turning now to a further compound:
Can you look up pIC50 on UniProt Q86W56 for COc1ccc(Cn2c(=O)n(C)c(=O)c3cc(S(=O)(=O)NC4(C)CC4)ccc32)cc1 [Example 61] ?
6.34

###

- System: PARG in HeLa cell line
- test_name: PARG cell assay (PAR chain immunofluorescence after MMS)
- Assay type: cell-based
- reported_conditions: Homo sapiens; HeLa cells, MMS 50 μg/mL; read-out: PARG Cell IC50 Geomean
# note: boundary value 300 nM maps to F; IC50 below it maps to T

Consider the worked cases shown below.
{"compound": "Cc1cc(Cn2c(=O)c3cc(S(=O)(=O)NC4(C)CC4)ccc3n(CC3CC(C)(C)O3)c2=O)on1 (stereo not shown) [Example 352]", "target_or_test_system": "PARG in HeLa cell line", "group_label": "F"}
{"compound": "Cc1cc(Cn2c(=O)c3cc(S(=O)(=O)NC4(C)CC4)ccc3n(CC3(CO)COC3)c2=O)on1 [Example 340]", "target_or_test_system": "PARG in HeLa cell line", "group_label": "F"}
{"compound": "Cc1cc(Cn2c(=O)c3cc(S(=O)(=O)NC4(C)CC4)ccc3n(CC3CCCCC3)c2=O)on1 [Example 290]", "target_or_test_system": "PARG in HeLa cell line", "group_label": "T"}
{"compound": "Cc1cc(Cn2c(=O)c3cc(S(=O)(=O)NC4(C)CC4)ccc3n(CC3CCSCC3)c2=O)on1 [Example 381]", "target_or_test_system": "PARG in HeLa cell line", "group_label": "T"}
{"compound": "Cn1cc(Cn2c(=O)c3cc(S(=O)(=O)NC4(C)CC4)c(F)cc3n(CC3COC3)c2=O)cn1 [Example 394]", "target_or_test_system": "PARG in HeLa cell line", "group_label": "F"}

From here, focus on the item given below.
# check: IC50 < 300 nM for Cc1nc(C)c(Cn2c(=O)n(C)c(=O)c3cc(S(=O)(=O)NC4CC4)ccc32)s1 [Example 201]
T

###

List of pIC50 values.
- target_or_test_system: Human Full Length PARG (Homo sapiens (Human), UniProt Q86W56)
- Sequence (Q86W56 whole entry): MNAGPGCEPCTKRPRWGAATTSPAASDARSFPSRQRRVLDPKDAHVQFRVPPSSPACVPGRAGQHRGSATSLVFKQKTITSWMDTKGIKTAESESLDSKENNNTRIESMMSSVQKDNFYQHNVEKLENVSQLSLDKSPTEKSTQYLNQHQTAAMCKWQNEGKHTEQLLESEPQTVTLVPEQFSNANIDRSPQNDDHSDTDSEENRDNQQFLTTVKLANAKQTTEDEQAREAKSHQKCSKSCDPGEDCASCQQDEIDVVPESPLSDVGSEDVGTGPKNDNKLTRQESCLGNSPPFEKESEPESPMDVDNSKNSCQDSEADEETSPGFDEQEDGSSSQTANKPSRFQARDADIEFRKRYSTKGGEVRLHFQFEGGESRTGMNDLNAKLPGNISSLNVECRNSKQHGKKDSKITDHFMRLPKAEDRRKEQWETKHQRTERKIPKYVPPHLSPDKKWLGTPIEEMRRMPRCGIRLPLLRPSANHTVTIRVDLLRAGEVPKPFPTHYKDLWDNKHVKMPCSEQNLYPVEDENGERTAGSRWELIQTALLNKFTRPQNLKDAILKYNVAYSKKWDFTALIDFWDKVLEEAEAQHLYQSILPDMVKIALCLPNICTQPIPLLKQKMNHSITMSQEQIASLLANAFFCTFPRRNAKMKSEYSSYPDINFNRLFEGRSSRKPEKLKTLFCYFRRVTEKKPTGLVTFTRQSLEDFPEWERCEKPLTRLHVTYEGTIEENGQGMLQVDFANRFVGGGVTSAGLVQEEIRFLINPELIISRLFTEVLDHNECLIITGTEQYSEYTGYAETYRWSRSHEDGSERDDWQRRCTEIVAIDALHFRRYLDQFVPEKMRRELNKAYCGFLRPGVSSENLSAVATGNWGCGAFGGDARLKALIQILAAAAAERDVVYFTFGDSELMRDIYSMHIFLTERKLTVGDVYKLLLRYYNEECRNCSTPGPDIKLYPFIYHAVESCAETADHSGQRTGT
- test_name: PARG enzyme assay (TR-FRET)
- Type: biochemical
- reported_conditions: read-out: PARG Biochem IC50
pIC50 field: float, defined as -log10 of concentration (mol/L).

Use the examples below as a reference point.
{"compound": "Cn1cc(Cn2c(=O)c3cc(S(=O)(=O)NC4(CF)CC4)ccc3n(C)c2=O)cn1 [Example 408]", "pIC50": 6.19}
{"compound": "Cn1c(=O)n(Cc2cnn3ccccc23)c(=O)c2cc(S(=O)(=O)NC3(C)CC3)ccc21 [Example 434]", "pIC50": 5.23}
{"compound": "Cc1cc(Cn2c(=O)c3cc(S(=O)(=O)NC4(CF)CC4)ccc3n(Cc3nc(C)nn3C)c2=O)on1 [Example 554]", "pIC50": 6.30}

Turning now to a further compound:
Param item = Cc1cc(Cn2c(=O)n(Cc3cnn(C)c3)c(=O)c3cc(S(=O)(=O)NC4(CF)CC4)ccc32)on1 [Example 441] ; retrieve measured pIC50.
7.62

###

List of IC50 values.
- target_or_test_system: Human Full Length PARG (Homo sapiens (Human), UniProt Q86W56)
- test_name: PARG enzyme assay (TR-FRET)
- Type: biochemical
- reported_conditions: read-out: PARG Biochem IC50 Geomean
Response body: numeric value in nM, unit text excluded.

Use the examples below as a reference point.
{"compound": "Cc1cc(Cn2c(=O)c3cc(S(=O)(=O)NC4(C)CC4)ccc3n(CC3CCCCO3)c2=O)on1 (stereo not shown)", "observed_property": "IC50", "value_reported": 296}
{"compound": "Cc1cc(Cn2c(=O)c3cc(S(=O)(=O)NC4(C)CC4)ccc3n(CC(C)O)c2=O)on1 (stereo not shown)", "observed_property": "IC50", "value_reported": 523}
{"compound": "Cn1c(=O)c2cc(S(=O)(=O)NC3(C)CC3)ccc2n(Cc2noc(C(C)(C)C)n2)c1=O", "observed_property": "IC50", "value_reported": 1420}
{"compound": "Cn1c(=O)c(=O)[nH]c2ccc(S(=O)(=O)NC3(C)CC3)cc21", "observed_property": "IC50", "value_reported": 6930}
{"compound": "Cc1cc(Cn2nc(C)c3ccc(S(=O)(=O)NC4(C)CC4)cc3c2=O)on1", "observed_property": "IC50", "value_reported": 1180}

Param item = `Cn1c(=O)n(Cc2cnn(Cc3ccccc3)c2)c(=O)c2cc(S(=O)(=O)NC3(C)CC3)ccc21` ; retrieve measured IC50.
592

Param item = `Cc1cc(COc2nc3ccc(S(=O)(=O)NC4(C)CC4)cc3c(=O)n2Cc2cnc(C)s2)n(C)n1` ; retrieve measured IC50.
343

Param item = `CC1(NS(=O)(=O)c2ccc3c(c2)c(=O)n(CC#N)c(=O)n3CC2CC2)CC1` ; retrieve measured IC50.
277

Param item = `Cn1c(=O)n(Cc2cncs2)c(=O)c2cc(S(=O)(=O)NC3(C)CC3)ccc21` ; retrieve measured IC50.
1210

Param item = `Cc1cc(Cn2c(=O)c3cc(S(=O)(=O)NC4(C)CC4)ccc3n(Cc3cc(C)no3)c2=O)on1` ; retrieve measured IC50.
36

Param item = `Cc1cc(Cn2c(=O)c3cc(S(=O)(=O)NC4(C)CC4)ccc3n(CC(F)(F)F)c2=O)on1` ; retrieve measured IC50.
431

Param item = `Cn1cc(Cn2c(=O)c3cc(S(=O)(=O)NC4(C)CC4)ccc3n(CC3(F)COC3)c2=O)cn1` ; retrieve measured IC50.
101

Param item = `Cc1cc(Cn2c(=O)c3cc(S(=O)(=O)NC4(C)CC4)ccc3n(CC3(CO)COC3)c2=O)on1` ; retrieve measured IC50.
389

Param item = CCOC(=O)C(F)n1c(=O)n(Cc2cc(C)no2)c(=O)c2cc(S(=O)(=O)NC3(C)CC3)ccc21 (stereo not shown) ; retrieve measured IC50.
1050

Param item = `Cc1noc(C)c1Cn1c(=O)n(C)c(=O)c2cc(S(=O)(=O)NC3(C)CC3)ccc21` ; retrieve measured IC50.
2540

Param item = `Cc1cc(Cn2cnc3ccc(S(=O)(=O)NC4(C)CC4)cc3c2=O)on1` ; retrieve measured IC50.
1230
